Cited source for all entries: patent US20250154140A1

# measurement.target: BAX (Homo sapiens)
# test: SMAC mCherry assay in permeabilized Bax-/- Bak-/- BMK cells with recombinant Bax and cBid
# condition.label: 20 nM Bax, 0.5 nM cBid, 60-80 minutes; read-out: SMAC mCherry I.D IC50
pIC50: −log10 of the molar value.
readout.name: pIC50

The following compounds have reported results that may help.
>>> result("COc1cc2ccnc(Nc3ccc(F)c(Cl)c3)c2cc1NC(=O)CCN1CCCC1 [Compound 1-42]")
"4.30 to 4.96"
>>> result("O=C(CCCN1CCCCC1)Nc1ccc2ccnc(Nc3ccc(F)c(C(F)(F)F)c3)c2c1 [Compound 1-33]")
"5.00 to 7.00"
>>> result("O=C(CCCN1CCCCC1)Nc1ccc2ccnc(Nc3ccc(Cl)c(Cl)c3)c2c1 [Compound 1-35]")
"5.00 to 7.00"

// switching to the query compound
Exercise: Fill in pIC50 for record COc1cc2ccnc(Nc3ccc(F)c(Cl)c3)c2cc1NC(=O)CCN1CCCCC1 [Compound 1-3]
Key: 4.30 to 4.96

====

# measurement.target: UniProtKB Q07812
# test: SMAC mCherry assay in permeabilized Bax-/- Bak-/- BMK cells with recombinant Bax and cBid
# condition.label: 20 nM Bax, 0.5 nM cBid, 60-80 minutes; read-out: SMAC mCherry I.D IC50
pIC50: −log10 of the molar value.
Measured pIC50 values are reported for all entries that follow.

>>> result("COc1cc2ccnc(Nc3cccc(C)c3)c2cc1NC(=O)CCCN1CCCCC1")
"4.00 to 4.29"
>>> result("Cc1ccc(Nc2nccc3ccc(NC(=O)CCCN4CCCCC4)cc23)cc1Cl")
"5.00 to 7.00"
>>> result("COc1cc2ccnc(Nc3ccc(F)c(Cl)c3)c2cc1NC(=O)CCCN1C[C@@H](C)O[C@@H](C)C1")
"5.00 to 7.00"

Exercise: // fetch pIC50 for "COc1cc2ccnc(Nc3ccc(F)c(C(F)(F)F)c3)c2cc1NC(=O)CCCN1CCCCC1" ; system: UniProtKB Q07812
Key: 5.00 to 7.00

Exercise: State the measured pIC50 (UniProtKB Q07812) of "COc1cc2ccnc(Nc3cc(Cl)c(F)c(Cl)c3)c2cc1NC(=O)CCCN1CCCCC1"
Key: 5.00 to 7.00

Exercise: GET pIC50 | system: UniProtKB Q07812 | item: "COc1cc2ccnc(Nc3ccc(F)c(Cl)c3)c2cc1N(C)C(=O)CCCN1CCCCC1"
Key: 4.30 to 4.96

Exercise: Identify measured pIC50 obtained with UniProtKB Q07812 for "COc1cc2ccnc(Nc3ccc(C)c(Cl)c3)c2cc1NC(=O)CCCN1CCCCC1" .
Key: 5.00 to 7.00

Exercise: Write down the reported pIC50 (system: UniProtKB Q07812) of "O=C(CCCN1CCCCC1)Nc1ccc2ccnc(Nc3cc(F)c(Cl)c(Cl)c3)c2c1"
Key: 5.00 to 7.00

====

# measurement.target: BAX (Homo sapiens, UniProt Q07812)
# Sequence (Q07812 whole entry): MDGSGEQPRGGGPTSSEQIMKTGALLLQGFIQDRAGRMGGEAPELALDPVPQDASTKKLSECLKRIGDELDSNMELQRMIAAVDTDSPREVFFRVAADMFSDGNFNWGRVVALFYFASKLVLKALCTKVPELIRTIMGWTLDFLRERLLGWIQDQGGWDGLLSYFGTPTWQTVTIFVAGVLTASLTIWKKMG
# test: SMAC mCherry assay in permeabilized Bax-/- Bak-/- BMK cells with recombinant Bax and cBid
# condition.label: 20 nM Bax, 0.5 nM cBid, 60-80 minutes; read-out: SMAC mCherry I.D IC50
readout.name: IC50

>>> result("COc1cc2ccnc(Nc3ccc(F)cc3)c2cc1NC(=O)CCCN1CCCCC1 [Compound 1-12]")
"51 to 100 µM"
>>> result("COc1cc2ccnc(Nc3ccc(F)c(Cl)c3)c2cc1NC(=O)CCCN1CCN(C)CC1 [Compound 1-7]")
"0.1 to 10 µM"
>>> result("O=C(CCCN1CCCCC1)Nc1ccc2ccnc(Nc3ccc(Cl)c(Cl)c3F)c2c1 [Compound 1-34]")
"0.1 to 10 µM"
>>> result("COc1cc2ccnc(Nc3ccccc3)c2cc1NC(=O)CCCN1CCCCC1 [Compound 1-15]")
"51 to 100 µM"

Exercise: State measured IC50 of the molecule O=C(CCCN1CCCCC1)Nc1cc2c(Nc3ccc(F)c(Cl)c3)nccc2cc1Cl [Compound 1-26] with BAX (Homo sapiens, UniProt Q07812).
Key: 0.1 to 10 µM

Exercise: Look up BAX (Homo sapiens, UniProt Q07812) data: IC50 of N#Cc1cccc(Nc2nccc3ccc(NC(=O)CCCN4CCCCC4)cc23)c1 [Compound 1-41] , then report it.
Key: 11 to 50 µM

Exercise: # return IC50 for COc1cc(Nc2nccc3cc(OC)c(NC(=O)CCCN4CCCCC4)cc23)ccc1F [Compound 1-22] , test system: BAX (Homo sapiens, UniProt Q07812)
Key: 11 to 50 µM

Exercise: Give IC50; test system BAX (Homo sapiens, UniProt Q07812); molecule COc1cc(NC(=O)CCCN2CCCCC2)cc2c(Nc3ccc(F)c(Cl)c3)nccc12 [Compound 1-29]
Key: 0.1 to 10 µM

Exercise: Give IC50 only, for COc1cc2ccnc(Nc3ccc(F)cc3Cl)c2cc1NC(=O)CCCN1CCCCC1 [Compound I-19] , using BAX (Homo sapiens, UniProt Q07812) data.
Key: 11 to 50 µM
